Data provenance: patent US20040235834A1

Measurement record for ZAP-70 (Homo sapiens); quantity recorded: pKi.
pKi: −log10 of the molar value.

Oc1cc(Nc2nccc(-c3cscn3)n2)cc(C(F)(F)F)c1 ≥ 5.30

pKi for `Cc1cc(Nc2nccc(-c3cscn3)n2)cc(C(F)(F)F)c1` ?
≥ 5.30
